All values here come from paper PMC10500653.

target-of-assay: FGFR1 tyrosine kinase (Homo sapiens, UniProt P11362)
Sequence (P11362 22-822): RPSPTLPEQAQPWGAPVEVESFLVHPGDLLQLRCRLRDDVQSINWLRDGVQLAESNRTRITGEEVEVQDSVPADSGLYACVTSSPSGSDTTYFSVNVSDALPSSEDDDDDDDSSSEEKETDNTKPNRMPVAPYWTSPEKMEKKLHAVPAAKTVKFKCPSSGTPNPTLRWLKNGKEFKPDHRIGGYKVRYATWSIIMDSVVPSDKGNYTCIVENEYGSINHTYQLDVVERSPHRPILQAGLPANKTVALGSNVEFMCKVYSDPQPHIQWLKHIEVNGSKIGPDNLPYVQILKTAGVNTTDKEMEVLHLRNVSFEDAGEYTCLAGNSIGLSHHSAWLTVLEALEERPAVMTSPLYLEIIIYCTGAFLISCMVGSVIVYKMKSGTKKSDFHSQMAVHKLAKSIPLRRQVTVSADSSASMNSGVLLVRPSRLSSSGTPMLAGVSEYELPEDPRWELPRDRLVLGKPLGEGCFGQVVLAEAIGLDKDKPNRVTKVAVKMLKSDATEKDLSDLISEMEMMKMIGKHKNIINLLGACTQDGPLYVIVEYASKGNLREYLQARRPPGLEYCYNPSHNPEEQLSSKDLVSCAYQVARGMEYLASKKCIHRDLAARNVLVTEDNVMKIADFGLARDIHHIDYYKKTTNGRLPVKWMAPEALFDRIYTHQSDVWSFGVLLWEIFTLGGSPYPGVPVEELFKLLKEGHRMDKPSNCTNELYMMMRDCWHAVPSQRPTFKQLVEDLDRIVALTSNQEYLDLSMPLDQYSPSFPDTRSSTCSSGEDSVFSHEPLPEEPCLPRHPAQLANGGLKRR
protocol-description: ADP-Glo kinase assay, FGFR1
Type: biochemical
study-conditions: read-out: % inhibition of FGFR1

mol: O=C(/C=C/c1ccc(O)cc1)c1cccc(NC2=C(Cl)C(=O)c3ccccc3C2=O)c1
inhibition at 1 µM: > 70%

mol: COc1ccc(/C=C/C(=O)c2ccc(NC3=C(Cl)C(=O)c4ccccc4C3=O)cc2)cc1OC
inhibition at 1 µM: > 70%

mol: COc1cc(/C=C/C(=O)c2cccc(NC3=C(Cl)C(=O)c4ccccc4C3=O)c2)cc(OC)c1O
inhibition at 1 µM: > 70%

mol: COc1cccc(/C=C/C(=O)c2cccc(NC3=C(Cl)C(=O)c4ccccc4C3=O)c2)c1OC
inhibition at 1 µM: > 70%

mol: O=C(/C=C/c1ccc(O)cc1)c1ccc(NC2=C(Cl)C(=O)c3ccccc3C2=O)cc1
inhibition at 1 µM: > 70%

mol: COc1ccc(/C=C/C(=O)c2cccc(NC3=C(Cl)C(=O)c4ccccc4C3=O)c2)c(OC)c1OC
inhibition at 1 µM: > 70%

----------
Tested on: MOLT-3 lymphoblastic leukemia cell line
protocol-description: Cytotoxicity assay
Format: cell-based
study-conditions: Homo sapiens, MOLT-3, 48 h, read-out: Cytotoxic activity IC50, MOLT-3
pIC50: −log10 of the molar value.
We begin with a simple list: items and their reported pIC50.
test-readout: pIC50

molecule: O=C(/C=C/c1ccc(O)cc1)c1cccc(NC2=C(Cl)C(=O)c3ccccc3C2=O)c1 [Compound 5]
obs-value: 5.66
--
molecule: COc1cc(/C=C/C(=O)c2ccc(NC3=C(Cl)C(=O)c4ccccc4C3=O)cc2)cc(OC)c1OC [Compound 8]
obs-value: 6.09
--
molecule: COc1ccc(/C=C/C(=O)c2cccc(NC3=C(Cl)C(=O)c4ccccc4C3=O)c2)c(OC)c1OC [Compound 2]
obs-value: 5.74
--
molecule: COc1cc([C@@H]2c3cc4c(cc3[C@@H](O[C@@H]3O[C@@H]5CO[C@@H](C)O[C@H]5[C@H](O)[C@H]3O)[C@H]3COC(=O)[C@H]23)OCO4)cc(OC)c1O [etoposide, reference compound]
obs-value: 7.39
--
molecule: COc1ccc(/C=C/C(=O)c2ccc(NC3=C(Cl)C(=O)c4ccccc4C3=O)cc2)cc1OC [Compound 7]
obs-value: 5.90
--
molecule: COc1cc(/C=C/C(=O)c2cccc(NC3=C(Cl)C(=O)c4ccccc4C3=O)c2)cc(OC)c1OC [Compound 3]
obs-value: 6.00
--
molecule: COc1ccc(/C=C/C(=O)c2ccc(NC3=C(Cl)C(=O)c4ccccc4C3=O)cc2)cc1O [Compound 9]
obs-value: 6.08

----------
Listing of entries alongside the reported IC50.
Tested on: MDA-MB-231 hormone-independent breast cancer
protocol-description: Cytotoxicity assay
Type: cell-based
study-conditions: Homo sapiens, MDA-MB-231, 48 h, read-out: Cytotoxic activity IC50, MDA-MB-231

compound: COc1cccc2c1C(=O)c1c(O)c3c(c(O)c1C2=O)C[C@@](O)(C(=O)CO)C[C@@H]3O[C@H]1C[C@H](N)[C@H](O)[C@H](C)O1 [doxorubicin, reference compound]
IC50 [nM]: 1840
//
compound: COc1ccc(/C=C/C(=O)c2cccc(NC3=C(Cl)C(=O)c4ccccc4C3=O)c2)c(OC)c1OC
IC50 [nM]: 1790
//
compound: COc1cccc(/C=C/C(=O)c2cccc(NC3=C(Cl)C(=O)c4ccccc4C3=O)c2)c1OC
IC50 [nM]: 1080
//
compound: COc1cccc(/C=C/C(=O)c2ccc(NC3=C(Cl)C(=O)c4ccccc4C3=O)cc2)c1
IC50 [nM]: 1310
//
compound: O=C(/C=C/c1ccc(O)cc1)c1cccc(NC2=C(Cl)C(=O)c3ccccc3C2=O)c1
IC50 [nM]: 3330
